PARAMETER_MEASURED: melting point

Below: 6 compounds and their reported melting point.
> print(dat)
                                   compound  observed.measurement
1      O=C(O)CNC(=O)c1ccccc1NC(=O)c1ccccc1O         222 to 224 °C
2        OCCCNCc1cc(C(F)(F)F)cc(C(F)(F)F)c1           57 to 58 °C
3  Cc1ccc(-c2ccc(S(C)(=O)=O)c(F)c2)n1-c1ccc(-c2cscn2)cc1                215 °C
4  NC(C(=O)N1CCC(F)C1)C1CCCCC1 (mixture of isomers)              > 250 °C
5  CNC(=S)N1CCc2[nH]cnc2C1c1ccccc1 (centres undefined)                228 °C
6  CC1(C)OC(=O)Nc2ccc(-c3ccc(C#N)n3CC(=O)O)cc21         207 to 209 °C

Endpoint output: melting point of COc1cc(Nc2nccc(-c3ccc(NC4CCN(Cc5ccccc5)CC4)nc3)n2)cc(OC)c1OC . Value?
113 to 114 °C

Endpoint output: melting point of COC(=O)c1ccc(-c2oc3cc(NS(C)(=O)=O)ccc3c(=O)c2OS(C)(=O)=O)cc1 . Value?
250 °C

Endpoint output: melting point of COc1cc(O)c(C=O)c(-c2nc(C)no2)c1C . Value?
135 to 136 °C

Endpoint output: melting point of COc1cc2c(N3CCN(C(=O)Nc4ccc(Oc5ccccc5)cc4)CC3)ncnc2cc1OC(C)C . Value?
157 to 160 °C

Endpoint output: melting point of C=CCc1[nH]cc(C#N)c1-c1ccc(Cl)cc1C(=O)c1ccccc1F . Value?
142 to 144 °C

###

# Lookup of reported melting point keyed by entry

Below: 3 compounds and their reported melting point.
> print(dat)
                           structure.string  parameter.measured  observed.measurement
1     O=Cc1cc(-c2ccc(Cl)cc2Cl)ccc1OC(F)(F)F       melting point           62 to 63 °C
2            Cc1ccc(S(=O)(=O)NP(N)(N)=O)cc1       melting point         114 to 118 °C
3  O=c1c2c(O)cccc2[nH]c2c([N+](=O)[O-])ccc(Cl)c12       melting point         265 to 267 °C

Endpoint output: melting point of CCCn1nc2c(N)nc3ccccc3c2c1CC(C)(C)NS(C)(=O)=O . Value?
130 to 139 °C

Endpoint output: melting point of Cc1ccccc1-c1c(C(=O)O)c(=O)n(C)c2ccc(Cl)cc12 . Value?
202 to 203 °C

Endpoint output: melting point of CCn1cc2c(n1)c(N)nc1cc(O)ccc12 . Value?
214 to 215 °C

###

# Lookup of reported melting point keyed by entry

Below: 5 compounds and their reported melting point.
> print(dat)
                                   compound  parameter.measured  observed.measurement
1  Cc1cc(=O)c2ccc(OCCCN3CCC(NC(=O)c4ccccc4[N+](=O)[O-])CC3)cc2o1       melting point         185 to 187 °C
2           OCCCc1cnoc1-c1ccc(OC(F)(F)F)cc1       melting point           50 to 51 °C
3  O=c1[nH]c2cc(Cl)c(Cl)cc2[n+]([O-])c1-c1ccc(O)cc1       melting point         276 to 278 °C
4  CCn1cc(C(=O)OCC(=O)O)c(=O)c2cc3c(cc21)OCO3       melting point         240 to 243 °C
5  CCS(CCO)=NS(=O)(=O)c1ccccc1 (stereo not given)       melting point         75 to 76.5 °C

Endpoint output: melting point of CCc1cn(C2CC(OC(C)=O)C(CCC(=O)Cc3c(Cl)cccc3Cl)O2)c(=O)[nH]c1=O (stereo not given) . Value?
186 °C

Endpoint output: melting point of Cn1c(COc2ccc(CC3SC(=O)NC3=O)cc2)nc2ccc(Oc3ccc(O)cc3)cc21 (stereo not given) . Value?
126 to 131 °C

Endpoint output: melting point of O=c1c(-c2cccc(C(F)(F)F)c2F)nn(Cc2ccc(F)cc2F)c2cc(Cl)ccc12 . Value?
118 to 120 °C

Endpoint output: melting point of CC(CCC(=O)O)(c1ccc(OCc2ccc3ccccc3n2)cc1)c1ccc(OCc2nc3ccccc3s2)cc1 (stereo not given) . Value?
68 to 72 °C

Endpoint output: melting point of COCC(C)N1Cc2c(NC(=O)c3ccc(F)c(C(F)(F)F)c3)cccc2C1=O (stereo not given) . Value?
151 to 152 °C

Endpoint output: melting point of Cc1ccc2c(c1)N=C(N1CCN(C)CC1)c1c(sc3ccccc13)N2 . Value?
184 to 186 °C

Endpoint output: melting point of N#CCn1nnc(NC(=O)C2c3ccccc3Oc3ccccc32)n1 . Value?
204 to 205 °C

Endpoint output: melting point of CCC1Oc2ccc(-c3nc4ccccn4c3C)cc2NC1=O (stereo not given) . Value?
216 to 217 °C

Endpoint output: melting point of CCCCNC(=O)CCC(=O)c1ccccc1 . Value?
78 to 80 °C

Endpoint output: melting point of O=C1N(Cc2ccncc2)Cc2cccnc2N1c1cccc(Cl)c1 . Value?
132 to 134 °C

Attribution: a melting point compilation (Tetko et al.; mined from patent text by program, amines drawn as free bases though some values may be those of a salt)
